- TEST_METHOD_NOTES: Pharmacokinetics after IV and oral administration
- Assay type: in vivo
- DETAILS: plasma, po, 100 mg/kg, 100 mg/kg po, PEG-400/tween; BALB/c mice or Sprague Dawley rats
RECORDED_METRIC: half-life (h)

O=C(CC1(O)C(=O)Nc2c(Cl)ccc(Cl)c21)c1ccc(C2CC2)cc1 (single isomer, unassigned) [Cmpd 14]; 3.83

###

- TEST_METHOD_NOTES: Pharmacokinetics, continuous infusion study in dog
- Assay type: in vivo
- DETAILS: plasma, iv, 25 mg/kg/day
RECORDED_METRIC: half-life (min)

O=C(CC1(O)C(=O)Nc2c(Cl)ccc(Cl)c21)c1ccc(C2CC2)cc1 (single isomer, unassigned); 102

###

- TEST_METHOD_NOTES: Pharmacokinetics after IV and oral administration
- Type: in vivo
- DETAILS: plasma, iv, 10 mg/kg, 10 mg/kg IV, captisol; BALB/c mice or Sprague Dawley rats; read-out: Tmax
RECORDED_METRIC: Tmax (min)

O=C(CC1(O)C(=O)Nc2c(Cl)ccc(Cl)c21)c1ccc(C2CC2)cc1 (single isomer, unassigned) [Cmpd 14]; 1.8

###

- TEST_METHOD_NOTES: Pharmacokinetics, continuous infusion study in rat
- Assay type: in vivo
- DETAILS: plasma, iv, 24 mg/kg/day
RECORDED_METRIC: Vd (L/kg)

O=C(CC1(O)C(=O)Nc2c(Cl)ccc(Cl)c21)c1ccc(C2CC2)cc1 (single isomer, unassigned); 3.46

###

- DETAILS: rat liver microsome, no cofactor, 60 min
Reported Remaining (NCF = 60 min) values for the following molecules.
RECORDED_METRIC: Remaining (NCF = 60 min) (%)

COc1ccc(C(=O)CC2(O)C(=O)Nc3c(Cl)ccc(Cl)c32)cc1 (single isomer, unassigned) [Cmpd 3]; 92.6
COc1ccc(C(=O)CC2(O)C(=O)Nc3c(Cl)ccc(Cl)c32)cc1 (single isomer, unassigned) [Cmpd 2]; 92.7
O=C(CC1(O)C(=O)Nc2c(Cl)ccc(Cl)c21)c1ccc(C2CC2)cc1 (single isomer, unassigned) [Cmpd 13]; 97.0
C[C@]12CC[C@H]3[C@@H](CCC4=CC(=O)CC[C@@]43C)[C@@H]1CC[C@@H]2O [Testosterone, reference compound]; 87.3
O=C(CC1(O)C(=O)Nc2c(Cl)ccc(Cl)c21)c1ccc(C2CC2)cc1 (single isomer, unassigned) [Cmpd 14]; 97.6

###

Reported half-life values for the following compounds.
- TEST_METHOD_NOTES: Pharmacokinetics after IV and oral administration
- Format: in vivo
- DETAILS: plasma, po, 20 mg/kg, 20 mg/kg po, labrasol/tetraglycol 9:1; BALB/c mice or Sprague Dawley rats
RECORDED_METRIC: half-life (h)

COc1ccc(C(=O)CC2(O)C(=O)Nc3c(Cl)ccc(Cl)c32)cc1 (single isomer, unassigned); 1.6
O=C(CC1(O)C(=O)Nc2c(Cl)ccc(Cl)c21)c1ccc(N2CCCC2)cc1 (single isomer, unassigned); 1.4
CNc1ccc(C(=O)CC2(O)C(=O)Nc3c(Cl)ccc(Cl)c32)cc1 (single isomer, unassigned); 3.1

###

- TEST_METHOD_NOTES: Pharmacokinetics after IV and oral administration
- Assay type: in vivo
- DETAILS: plasma, po, 100 mg/kg, 100 mg/kg po, labrasol/tetraglycol; BALB/c mice or Sprague Dawley rats; read-out: Tmax
- Experimental: Certain pharmacokinetics parameters were determined for certain compounds in vivo for intravenous and oral administration. Briefly, compounds were formulated and administered using IV bolus, continuous IV infusion or oral administration. Blood was collected at multiple time points over 24 hours and processed into plasma. Plasma was analyses for parent using LC/MS/MS. Certain parameters for certain compounds were obtained in duplicate.
RECORDED_METRIC: Tmax

O=C(CC1(O)C(=O)Nc2c(Cl)ccc(Cl)c21)c1ccc(C2CC2)cc1 (single isomer, unassigned) [Cmpd 14]; 2 h

###

- System: SKES cells (Ewing Sarcoma cell line)
- TEST_METHOD_NOTES: CCK-8 tetrazolium tumor cell growth inhibition, SKES
- Type: cell-based
- DETAILS: Homo sapiens, SKES, ES, EWS-FLI1 Type 2
RECORDED_METRIC: IC50

O=C(CC1(O)C(=O)Nc2c(Cl)ccc(Cl)c21)c1ccc(N2CCCC2)cc1 (stereo not drawn) [Cmpd 17]; > 5 µM
O=C(CC1(O)C(=O)Nc2c(Cl)ccc(Cl)c21)c1ccc(C2CC2)cc1 (single isomer, unassigned); > 5 µM
CC(C)c1ccc(C(=O)CC2(O)C(=O)Nc3c(Cl)ccc(Cl)c32)cc1 (racemic); > 5 µM
O=C(CC1(O)C(=O)Nc2c(Cl)ccc(Cl)c21)c1ccc(C2CC2)c(F)c1 (racemic); < 5 µM
O=C(CC1(O)C(=O)Nc2c(Cl)ccc(Cl)c21)c1ccncc1 (racemic); > 5 µM
O=C(CC1(O)C(=O)Nc2c(Cl)ccc(Cl)c21)c1ccc(C2CC2)cc1F (racemic); < 5 µM
O=C(CC1(O)C(=O)Nc2c(Cl)ccc(Cl)c21)c1ccc(N2CCC2)cc1 (racemic); < 5 µM
CS(=O)(=O)c1ccc(C(=O)CC2(O)C(=O)Nc3c(Cl)ccc(Cl)c32)cc1 (racemic); > 5 µM
NC(=O)c1ccc(C(=O)CC2(O)C(=O)Nc3c(Cl)ccc(Cl)c32)cc1 (racemic); > 5 µM
